B1: IQUB (parent)
chain: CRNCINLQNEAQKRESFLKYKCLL

Variants of: B1
protocol: protein stability index of a GFP-peptide fusion (GPS, HEK-293T) (PSI 1-6); higher = more stable;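 note: lentivirally expressed fusions sorted by FACS into six bins by GFP to DsRed ratio, PSI derived from sequencing read proportions per bin multiplied by bin number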
measurement-conditions: c terminus: a fixed tail appended

# mut, protein stability index
records = [
    ("E15S", 2.3),
    ("F17W", 1.58),
    ("N6E", 1.7),
    ("R2K", 1.92),
    ("E10R", 1.7),
    ("S16G", 2.93),
    ("C22M", 1.79),
    ("N9W", 2.72),
    ("A11R", 1.19),
    ("E10T", 1.71),
    ("C1I", 1.41),
    ("L23G", 2.03),
    ("E10G", 1.68),
    ("I5T", 1.71),
    ("K19D", 1.3),
    ("Q12R", 1.96),
    ("C1Q", 2.01),
    ("N3Q", 2.7),
    ("R14C", 1.64),
    ("L18Q", 1.85),
    ("L23Y", 2.05),
    ("S16Q", 2.06),
    ("Y20R", 1.83),
    ("S16P", 2.2),
    ("Q8P", 1.68),
    ("N3L", 1.91),
    ("L18M", 2.72),
    ("K19Q", 1.85),
    ("C22K", 1.87),
    ("S16L", 1.99),
    ("C4Q", 2.13),
    ("S16V", 2.4),
    ("I5S", 1.89),
    ("A11I", 1.82),
    ("C22G", 1.42),
    ("F17I", 1.79),
    ("N9R", 2.42),
    ("F17H", 1.68),
    ("L24N", 1.86),
    ("L18W", 1.96),
    ("Y20S", 1.5),
    ("Q8V", 2.12),
    ("C1M", 1.91),
    ("C22V", 1.73),
    ("C1H", 2.23),
    ("K13T", 2.04),
    ("L18F", 2.79),
    ("L24I", 1.75),
    ("N6A", 1.77),
    ("Y20L", 2.14),
    ("L24V", 1.27),
    ("A11S", 2.06),
    ("N9A", 1.84),
    ("S16F", 2.23),
    ("K13D", 1.58),
    ("K21R", 2.53),
    ("N6T", 1.72),
    ("R14H", 1.83),
    ("N9G", 2.15),
    ("F17L", 1.77),
    ("K13A", 1.54),
    ("N9M", 1.39),
    ("N6P", 1.7),
    ("K19I", 2.19),
    ("K13E", 1.29),
    ("L7A", 1.75),
    ("Q12V", 2.12),
    ("L24P", 2.22),
    ("L23N", 2.12),
    ("L7K", 1.95),
    ("N9P", 2.33),
]
